- System: K4 kissing-loop RNA reporter
- TEST_SUMMARY: apparent KD of K4 kissing-loop reporter; higher = weaker reporter binding
- PARTICULARS: Eterna round: R107; input ligand: arginine 13.2 mM
Lab note: compare apparent KD of K4 kissing-loop reporter against 200 nM. Equal or greater, write satisfied. Smaller, write not satisfied.

>>> print(df.to_string())
                           monomer_sequence                 target_system  discrete_label
0  AAGUCAUAUAGAAGGAGCGUGUUUUUUAAUUUGUUUUCAUGAUCGAGUGAUGUUCGAUAUACACAGGUAGGUCGCUGUAUAAUAA [hbob_SS_Arginine_B_2t142]  K4 kissing-loop RNA reporter   not satisfied
1  CACCAUGAAUUCUCUAGGAGUGAUGUUUUUCGAGGACCGGUACGGCCGCCACUCGGACGAGGACCGUGGGAGCGGCGAAAAGACU [ghgmullin]  K4 kissing-loop RNA reporter       satisfied
2  ACUUGAGCACAUAGCACACCAAGCAGUAGGUAGGAUAUCCGGCUUAGGAGAAGGACCAUGCAGUGAUGUUGCAUGCUCCUCCAUG [Zaribies]  K4 kissing-loop RNA reporter   not satisfied
3  GGUUUAUAAGAGGAUACCAGUACAAAUAAAGUACAUUAAUAGUAGAGUGAUGUUCUAAAGUACCCUUGGCAGCUUAGAUUAAGUU [ExTheophylB.F]  K4 kissing-loop RNA reporter       satisfied
4  UAUAUAGUGACGGCCGCCACUAUUGUGAUGUUAUUGUUAGAGUGAUGUUUUGUUGUUUAAUUUUGUAGGACCGGGUUAUAUGUUA [xxzsmullin]  K4 kissing-loop RNA reporter       satisfied
5  UAUCUAUGCUCGGCCGCCACUAGGACCGGGAUCUCUCUAGUGAUGUUAGUCUGAUCGGCCGCCACUAGGACCGGGAGUGUAGAUA [KL-SSTryp-B15 #DoubleAptamer]  K4 kissing-loop RNA reporter   not satisfied

====

- Tested on: MS2 coat protein
- TEST_SUMMARY: apparent KD of MS2 coat protein; designed switch direction (-1 OFF switch, 1 ON switch): -1; higher = weaker reporter binding
- PARTICULARS: input ligand: none
# Lookup of reported apparent KD of MS2 coat protein keyed by entry

MONOMER_SEQUENCE	apparent KD of MS2 coat protein, µM
AAACCUGGAGUUAGGAUAUGAAGUAUCACUGCGCUUCAGAAGGGACUUGAGGAUCACCCAAGUAAAAGUUAAAA [Teredi] (Eterna round: R97, puzzle: Brourd's mod of Exclusion 4)	0.0185
AGCUGUGGCCGAGGAUAUGACAUGAGGAUCACCCAUGUACGUAAUUAGGCCUGGUAACAGGCUCGUCAGAAGGCGGUCUCAGCA [Eli eng2 - 008] (Eterna round: R96, puzzle: Exclusion NG 2)	0.0153
AAAUAGUGAGGAUAUUAGUUGUACGUCAAUAGACGUAUAAGUGAGAAGGCACAUGAGGAUCACCCAUGUUCCUG [Omei Ex4 Mod of Mat's R95 mod of Omei v8] (Eterna round: R97, puzzle: Exclusion 4)	0.0183

====

# Lookup of reported apparent KD of K4 kissing-loop reporter keyed by entry
- System: K4 kissing-loop RNA reporter;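 note: bound reporter read as fluorescence of individual clusters on recovered sequencing chips by microscopy, with normalized cluster intensities fitted with a binding model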
- TEST_SUMMARY: apparent KD of K4 kissing-loop reporter; higher = weaker reporter binding
- PARTICULARS: Eterna round: R107; input ligand: FMN 200 uM
MEASUREMENT_KIND: apparent KD of K4 kissing-loop reporter (nM)

MONOMER_SEQUENCE	MEASUREMENT_KIND	UNIT_OF_MEASUREMENT	MEASURED
GAAAGAAAGAAUGAUACCAGACACCCGAGUGAUGUUCGGAGCAGAGUGAUGUUCUUUUAAGUCCCUUGGCAGCAUAAAAGAAAAG [whbob_SS_Theo_B_sa82]	apparent KD of K4 kissing-loop reporter	nM	109
UGUCAUUGGUCUGAUACCAGAAGAUAAUCUGGAGUGAUGUUCCAAGUACGACAAAGUCGCUUCCCUUGGCAGCAGACCGAUGACU [TheoBS 19 #SwitchBubble 13 #StaticStem]	apparent KD of K4 kissing-loop reporter	nM	1040
UGCGCUAUGUCCUAAAACGUCCUCCGGGAUACCAGUGUCUUUUUAUACCCUUGGCAGCUUGAGUGAUGUUUGAUGCCGUUCUUGU [izzxmullin]	apparent KD of K4 kissing-loop reporter	nM	432
CGAGCUUCCUGGGAUACCAGUCGGAGUCUCAGAGCUCGGAGUGAUGUUCUGGGAUGUUUCGGCCCUUGGCAGCUCUGGGACUCCU [#2 Exclusion - Theophylline B Attempt #20 (HarryS)]	apparent KD of K4 kissing-loop reporter	nM	1000
CCCGUUGCGGCGGCCGCCACUGACUUAUUGAUUAGGUUGCCAGUGAUGUUGGCCACCGGUCAAUACAGGACCGGGCCAUAGCGGG [Ceisreatte]	apparent KD of K4 kissing-loop reporter	nM	157
CGGCGGAGUGAUGUUCCACCUACUGCGGAUACCAGCUUUGCCAGAGGCCCUUGGCAGCCGCACGGCUCAGUGAUGUUGGGUUGCG [Same State Theophylline A G12]	apparent KD of K4 kissing-loop reporter	nM	237
UGUGAGCUGUCGACAAAAGUCGACUAAAACUAGGAUAUGACGAAAGUCAGAAGGAGUCAAUAAUGGAGUGAUGUUCCUGCUCACU [FmnA 9 U31+A55]	apparent KD of K4 kissing-loop reporter	nM	277
UCUGGAGUAUAUGAUACCAGCAGUGAGAGACAGGAAGUAUAGUGAUGUUAUAUGAGAGAAUGCCCUUGGCAGCGUGUGCGGUGGC [SSTheophylB.Q]	apparent KD of K4 kissing-loop reporter	nM	118
UGACUGGAUGGAAGGAGCGCUAAACUCCUAGUGAUGUUAGGGACAUGAGGCACAGCCUUGAAGCAGGUAGGUCGCCAUCUAGUCU [FiskerMod 28 - Jieux - Same State - Arginine B]	apparent KD of K4 kissing-loop reporter	nM	197
UGAUAGGACAGAAGGAGCGGUAGUGAUGUUGCCAAAAGGAUAAGGUGUCAAAAGACACCCUGCCAGGUAGGUCGCUGUCCUAUCU	apparent KD of K4 kissing-loop reporter	nM	126
GGUAGCAUGGCGGCCGCCACUUCAAAUGGAGUGAUGUUCCAAGGCAUCGCGAAAGCGAUGCCAGGAAGGACCGGGCCAUGCUACC	apparent KD of K4 kissing-loop reporter	nM	831

====

- Test system: MS2 coat protein
- TEST_SUMMARY: apparent KD of MS2 coat protein; designed switch direction (-1 OFF switch, 1 ON switch): -1; higher = weaker reporter binding
- PARTICULARS: input ligand: none
Lab note: compare apparent KD of MS2 coat protein against 30 nM. Equal or greater, write True. Smaller, write False.

MONOMER_SEQUENCE	DISCRETE_LABEL
UACGAGUUAGGAUAUGCAUUGGGCUCGCUUUCCUUCGAUAAACUUGAGGAUCACCCAAGUAGAAGGAACUUGUA [Mod 35 - Jieux - Exclusion 2] (Eterna round: R97, puzzle: Exclusion 2)	False
UGCCAGCGAGGAUAUGCUAGAGGUGUUCCGUGCUCUAAGGGACAUGAGGAUCACCCAUGUAGAAGGCGCACGUC [Eternabot (L1) Solution 20] (Eterna round: R97, puzzle: Exclusion 2)	True
GCUUGUGGGCAAGGAUAUCCUACGUUGUUCUGGUUCGUGUCUGUCACAUGAGGAUCACCCAUGUGGGAGAAGGUGCAUUUGGUU [Design 60] (Eterna round: R96, puzzle: Exclusion NG 2)	False
CCCGCACGAGUUAGGAUAUCAUUUGUCGAGAUAGGUGAGAAGGAACUUGAGGAUCACCCAAGUGUCCCGGGAAA [Maquso] (Eterna round: R97, puzzle: Brourd's mod of Exclusion 4)	False
UUUAAGUCAGGAUAUCGUUAAUUUAAUAAAUUAAUUUAAUUCGAGAAGGGACAUGAGGAUCACCCAUGUAAUUU [Ex4 #2] (Eterna round: R97, puzzle: Exclusion 4)	False
UUGUUAUAUGAAGGAUAUACUUAACAUGAGGAUCACCCAUGUGGUGUUGUGAGUGAGUGAGUUUAGUAGAAGGUCAAUGAUUUU [JMF's solution 73] (Eterna round: R96, puzzle: Exclusion NG 2)	True
AAAAUUGGUGAGGAUAUGCAGAUGCGCAAUGUCGCAGAAGGCACCACAUGAGGAUCACCCAUGUGUCCUCUAAA [EX6 A.19] (Eterna round: R97, puzzle: Exclusion 6)	False
UUAAUGAUUGUGAGGAUAUUUCAUAGAUAGAUAUUAGAGAAGGUACAUGAGGAUCACCCAUGUGUGAUUAGAGA [Brourd's EX4 #71] (Eterna round: R97, puzzle: Brourd's mod of Exclusion 4)	True
AAAUUAGCAAGUAGGUCCGACAUGAGGAUCACCCAUGUAAUCUAAUAUUACGCUGCAUGAGAGUGCGCUCGUCUUAA [Sensor-V1 #18] (Eterna round: R97, puzzle: Sensor, turn-off variant 1)	True
CUAAAUCAUGUAGGAUAUGCGUGGCAAAGCUAUGCAGAAGGACAUGAGGAUCACCCAUGUGCUUCCGUCUGAGUACAGACGGUA [Mat - Exclusion NG 1 - Mod of JL - D22] (Eterna round: R96, puzzle: Exclusion NG 1)	True
UGUUGUUCAGGAUAUGAUGUAUAAUACAUGAGGAUCACCCAUGUAGAUCCUGAAUUAGCGUCAGAAGGGAAUGUUG [salish99_ex5_r4_104] (Eterna round: R97, puzzle: Exclusion 5)	False
UUUAAUGGAAUUAAGAUCACAUGAGGAUCACCCAUGUAUAUAUAGGAUAUCAGCUCGUGUAGAGCUGAGAAGGAUAUAUACAUA [ExNG3/6-B3] (Eterna round: R96, puzzle: Exclusion NG 3)	True
UUUUAGUCAGGAUAUACAUGAGGAUCACCCAUGUAAACUUUUAGUUUAAUUUGAAUGUGUAGAAGGGACAUUUU [Ex3 #44] (Eterna round: R97, puzzle: Exclusion 3)	False
CACCUGAAUACAGGAUAUCCUACAUGAGGAUCACCCAUGUAAUAAAUGAGAAUUUCGAAUGUAAUGGAGAAGGGUAGAUAAGGC [Ostracism 88 - Jieux - Exclusion NG 2] (Eterna round: R96, puzzle: Exclusion NG 2)	True
UAUUAGCAAGUGAGGUCCCACAUGAGGAUCACCCAUGUGCUCGUCUUAUAAGGUACUGUGACGAAAGUCACGGUACC [Sensor 3, v1 - 95 v4] (Eterna round: R97, puzzle: Sensor, turn-off variant 1)	True
UGAUCUAGCGGAGGAUAUACAUGAGGAUCACCCAUGUAUAGGCUAUCUGGUGACAGGUGGAACAUGUAGAAGGCCGCUAGAUCU [JL ENG2 3.80] (Eterna round: R96, puzzle: Exclusion NG 2)	False
CUGAGCAGACGGAGAUCCAACAUGAGGAUCACCCAUGUCUCAGAAGCUUUUUGCUCGUCUUAUCCUCCUCUGUUCAC [Elimod 21 - Jieux - Sensor, turn-off variant 1] (Eterna round: R97, puzzle: Sensor, turn-off variant 1)	True
